Source: patent US7851654B2

The entries below come with measured pIC50 values attached.
- Assayed system: β-amylase
- Run description: β-amylase inhibitory activity via analysis of reducing sugars
- Measurement setup: 1% starch substrate, DNS reagent, same manner as α-amylase test
- Method: α-amylase, a kind of glycosidase enzymes, was used to identify glycosidase inhibitory activities of the chalcone derivatives of the present invention. Using 1% starch as substrate, α-amylase activities were measured by measuring the amounts in that α-amylases hydrolyzed the substrates after adding DNS (1% dinitrosalicylic acid, 12% potassium sodium tartrate in 0.4 M NaOH), a color reagent (Bioorg. Med. Chem. Lett., 2002, 12, 2335-2339). […]
Remember the convention: pIC50 equals -log10 of concentration in molar.

Return the recorded pIC50 value; entry: CS(=O)(=O)Nc1ccc(C(=O)/C=C/c2ccc(O)c(O)c2)cc1 [Example 12]
4.61

Return the recorded pIC50 value; entry: O=C(/C=C/c1ccc(O)c(O)c1)c1ccc(NS(=O)(=O)c2ccc([N+](=O)[O-])cc2)cc1 [Example 10]
3.70

Return the recorded pIC50 value; entry: CS(=O)(=O)Nc1ccc(C(=O)/C=C/c2ccc(O)cc2)cc1 [Example 6]
4.19

Return the recorded pIC50 value; entry: Cc1ccc(S(=O)(=O)Nc2ccc(C(=O)/C=C/c3ccc(O)cc3)cc2)cc1 [Example 2]
3.61

Return the recorded pIC50 value; entry: O=C(/C=C/c1ccc(O)cc1)c1ccc(NS(=O)(=O)c2ccc(F)cc2)cc1 [Example 5]
3.90

Return the recorded pIC50 value; entry: O=C(/C=C/c1ccc(O)c(O)c1)c1ccc(NS(=O)(=O)c2ccccc2)cc1 [Example 9]
3.69

====

- Test system: B-16 melanoma
- Run description: Melanin synthesis inhibitory activity in B-16 melanoma
- Format: cell-based, mice
- Measurement setup: Mus musculus, B16, DMEM with a-MSH and theophylline, read-out: IC50 melanin synthesis inhibition
The entries below come with measured IC50 values attached.
Write the value in µM as a bare number.

Previously resolved entries follow.
>>> value_reported("OC[C@H]1O[C@@H](Oc2ccc(O)cc2)[C@H](O)[C@@H](O)[C@@H]1O [Albutin, albutin, reference compound]")
92
>>> value_reported("Nc1ccc(C(=O)/C=C/c2ccc(O)cc2)cc1 [Example 8, 4′-amino-4-hydroxychalcone]")
12.5
>>> value_reported("Cc1ccc(S(=O)(=O)Nc2ccc(C(=O)/C=C/c3ccc(O)cc3)cc2)cc1 [Example 2]")
14.8
>>> value_reported("CS(=O)(=O)Nc1ccc(C(=O)/C=C/c2ccc(O)cc2)cc1 [Example 6]")
20.3
>>> value_reported("O=C(/C=C/c1ccc(O)cc1)c1ccc(NS(=O)(=O)c2ccc(F)cc2)cc1 [Example 5]")
23.7

Return the recorded IC50 value; entry: O=C(/C=C/c1ccc(O)cc1)c1ccc(NS(=O)(=O)c2ccccc2)cc1 [Example 3]
20.6

Return the recorded IC50 value; entry: Cc1ccc(S(=O)(=O)Nc2cccc(C(=O)/C=C/c3ccc(O)cc3)c2)cc1 [Example 14]
25.6

====

The entries below come with measured pIC50 values attached.
- Assayed system: α-amylase
- Run description: α-amylase inhibitory activity via analysis of reducing sugars
- Measurement setup: 1% starch substrate, DNS reagent, pH 4.5, 37° C., twenty minutes
Remember the convention: pIC50 equals -log10 of concentration in molar.

Return the recorded pIC50 value; entry: O=C(/C=C/c1ccc(O)c(O)c1)c1ccc(NS(=O)(=O)c2ccc([N+](=O)[O-])cc2)cc1 [Example 10]
4.43

Return the recorded pIC50 value; entry: CS(=O)(=O)Nc1ccc(C(=O)/C=C/c2ccc(O)cc2)cc1 [Example 6]
3.71

Return the recorded pIC50 value; entry: Cc1ccc(S(=O)(=O)Nc2ccc(C(=O)/C=C/c3ccc(O)cc3)cc2)cc1 [Example 2]
4.06

Return the recorded pIC50 value; entry: Nc1ccc(C(=O)/C=C/c2ccc(O)cc2)cc1 [Example 8, 4′-amino-4-hydroxychalcone]
3.57

Return the recorded pIC50 value; entry: CS(=O)(=O)Nc1ccc(C(=O)/C=C/c2ccc(O)c(O)c2)cc1 [Example 12]
4.77
